Taken from patent US20260242405A1.

target: N1-BR18 (IAV neuraminidase) (Influenza A virus); assay: Fluorescence-based inhibition assay (substrate Neu5Acα2-3GalβMU, β-galactosidase coupled); format: biochemical, influenza A virus A/Brisbane/02/2018 (H1N1); settings: read-out: percentage inhibition against N1-BR18, inhibitor 8.0 μM; Example 3, Table 4
property measured: inhibition at 8 µM (%)
The reply should be a number in %, with the unit left off.

Observe how each entry below is paired with its result.
INSERT INTO results (molecule, scale_unit, readout_number) VALUES
  ('CC(=O)N[C@@H]1C(O)C[C@](OCC2O[C@@H](Oc3ccc([N+](=O)[O-])cc3)C(O)C(O)[C@H]2O)(C(=O)O)OC1[C@H](O)[C@H](O)CO (some centres unmarked) [Neu5Acα2-6GalβpNP, reference compound]', '%', 3.5),
  ('CC(=O)N[C@@H]1C(O)C[C@](OC2C(O)[C@H](Oc3ccc([N+](=O)[O-])cc3)OC(CO)[C@@H]2O)(C(=O)O)OC1[C@H](O)[C@H](O)CO (some centres unmarked) [Neu5Acα2-3GalβpNP, reference compound]', '%', 1.8),
  ('CC(=O)NC1C[C@](OCC2O[C@@H](Oc3ccc([N+](=O)[O-])cc3)C(O)C(O)[C@H]2O)(C(=O)O)OC([C@H](O)[C@H](O)CO)[C@@H]1NC(C)=O (some centres unmarked) [4NAcNeu5Acα2-6GalβpNP]', '%', 0),
  ('CC(=O)N[C@H]1[C@H]([C@H](O)[C@H](O)CO)O[C@@](OC[C@H]2O[C@@H](Oc3ccc([N+](=O)[O-])cc3)[C@H](O)[C@@H](O)[C@H]2O)(C(=O)O)C[C@@H]1NC(=N)N [4-Guanidino-Neu5Acα2-6GalβpNP]', '%', 92.8);

Below: the item to evaluate.
Incoming: Recorded inhibition at 8 µM of CC(=O)N[C@@H]1C(N=[N+]=[N-])C[C@](OC2C(O)[C@H](Oc3ccc([N+](=O)[O-])cc3)OC(CO)[C@@H]2O)(C(=O)O)OC1[C@H](O)[C@H](O)CO (some centres unmarked) [4N3Neu5Acα2-3GalβpNP] , please.
Outgoing: 2.6

====

target: N1-Vic19 (IAV neuraminidase); assay: Fluorescence-based inhibition assay (substrate Neu5Acα2-3GalβMU, β-galactosidase coupled); format: biochemical, influenza A virus A/Victoria/2570/2019 (H1N1); settings: Example 3, Table 6; read-out: IC50 against N1-Vic19
property measured: IC50

INSERT INTO assay_data (compound, result) VALUES
  ('CC(=O)N[C@H]1[C@H]([C@H](O)[C@H](O)CO)OC(C(=O)O)=C[C@@H]1N=[N+]=[N-]', '6.2 µM');

Now consider a different compound.
Incoming: // query IC50 value for entry CC(=O)N[C@H]1[C@H]([C@H](O)[C@H](O)CO)OC(C(=O)O)=C[C@@H]1O [Neu5Ac2en, 2,3-dehydro-N-acetylneuraminic acid, reference compound]
Outgoing: 1.1 µM

====

molecular target: hNEU2 (human cytosolic sialidase) (Homo sapiens); construct: made in house; test: Fluorescence-based inhibition assay (substrate Neu5Acα2-3GalβMU, β-galactosidase coupled); assay type: biochemical; details: inhibitor 8.0 μM, substrate Neu5Acα2-3GalβMU 8.0 μM; Example 2, Table 2
Sequence (Q9Y3R4 whole entry): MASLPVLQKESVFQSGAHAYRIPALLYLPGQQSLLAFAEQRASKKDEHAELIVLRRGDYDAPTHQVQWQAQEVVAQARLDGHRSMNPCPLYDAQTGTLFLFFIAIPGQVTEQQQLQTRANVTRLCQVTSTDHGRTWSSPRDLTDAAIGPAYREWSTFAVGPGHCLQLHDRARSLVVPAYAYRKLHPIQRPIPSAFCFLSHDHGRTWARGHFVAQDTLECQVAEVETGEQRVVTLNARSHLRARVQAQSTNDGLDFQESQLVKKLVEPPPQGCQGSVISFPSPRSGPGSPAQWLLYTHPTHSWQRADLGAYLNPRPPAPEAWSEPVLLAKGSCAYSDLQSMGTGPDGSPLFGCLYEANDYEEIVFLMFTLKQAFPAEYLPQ
property measured: Percentage inhibition against hNEU2 (%)
The figure you give is taken to be in %; do not add the unit.

Sample records with Percentage inhibition against hNEU2:
INSERT INTO measurements (compound, readout_number) VALUES
  ('CC(=O)N[C@H]1[C@H]([C@H](O)[C@H](O)CO)OC(O)(C(=O)O)C[C@@H]1NC(C)=O (stereo partly drawn) [4NAcNeu5Ac (3), 4NAcNeu5Ac]', 3.0),
  ('CC(=O)N[C@H]1[C@H]([C@H](O)[C@H](O)CO)OC(C(=O)O)=C[C@@H]1NC(C)=O [4NAcNeu5Ac2en]', 2.1),
  ('CC(=O)N[C@H]1[C@H]([C@H](O)[C@H](O)CO)OC(O)(C(=O)O)C[C@@H]1N=[N+]=[N-] (stereo partly drawn) [4N3Neu5Ac (7), 4-azido-Neu5Ac]', 3.0),
  ('CC(=O)N[C@H]1[C@H]([C@H](O)[C@H](O)CO)OC(C(=O)O)=C[C@@H]1N [4NH2Neu5Ac2en, reference compound]', 0.0),
  ('CC(=O)N[C@H]1[C@H]([C@H](O)[C@H](O)CO)OC(O)(C(=O)O)C[C@@H]1NC(=N)N (stereo partly drawn) [4-Guanidino-Neu5Ac (9), 4-guanidino-Neu5Ac]', 3.3);

Proceeding to the next compound to report its Percentage inhibition against hNEU2.
Incoming: Could you share what Percentage inhibition against hNEU2 was measured for CC(=O)N[C@H]1[C@H]([C@H](O)[C@H](O)CO)OC(C(=O)O)=C[C@@H]1N=[N+]=[N-] [Compound 4N3Neu5Ac2en, 4N3Neu5Ac2en] , tested on hNEU2 (human cytosolic sialidase) (Homo sapiens)?
Outgoing: 3.3
